What Wheat plant response rating was measured for each of the following?
# Test system: wheat
# Test protocol: Test B postemergence herbicide test
# Type: in vivo, Triticum aestivum
# Set-up: key: 0 = no effect, 100 = complete control
# Condition info: 125 g ai/ha; visual rating, scale 0 (no effect) to 100 (complete control); postemergence
Give bare numbers.

{"Compound": "CCc1nn(C(C)(C)C)cc1C(=O)Nc1cccc(C(=O)N(C)C)n1", "Tested target": "wheat", "Readout name": "Wheat plant response rating", "Recorded value": 0}
{"Compound": "C#CCNC(=O)c1cccc(NC(=O)c2sc(C(C)(C)C)nc2CC)c1", "Tested target": "wheat", "Readout name": "Wheat plant response rating", "Recorded value": 10}
{"Compound": "CCc1nn(C(C)(C)CC)nc1C(=O)Nc1cccc(OC(F)(F)F)c1", "Tested target": "wheat", "Readout name": "Wheat plant response rating", "Recorded value": 0}
{"Compound": "CCN(CC)C(=O)c1ccc(F)c(NC(=O)C2CC(C(C)(C)C)=NN2CC)c1 (racemic)", "Tested target": "wheat", "Readout name": "Wheat plant response rating", "Recorded value": 10}
{"Compound": "C#CCNC(=O)c1ccc(F)c(NC(=O)c2nn(C(C)(C)C)nc2CC)c1", "Tested target": "wheat", "Readout name": "Wheat plant response rating", "Recorded value": 0}
{"Compound": "CCN1N=C(C(C)(C)C)CC1C(=O)Nc1cc(C(=O)N2CC=CC2)ccc1F (racemic)", "Tested target": "wheat", "Readout name": "Wheat plant response rating", "Recorded value": 10}

// input: 2 compounds below; output: Wheat plant response rating for each
1. CCn1nc(C(C)(C)C)cc1C(=O)Nc1ccc(OC)c(OC)c1
2. C#CCNC(=O)c1cncc(NC(=O)c2cc(C(C)(C)C)nn2CC)n1

Resp:
20
20

###

# Test system: rice
# Test protocol: Test B pre-/postemergence herbicide test
# Format: in vivo, Oryza sativa
# Condition info: preemergence, 125 g ai/ha; 0 to 100 scale, 0 is no effect, 100 is complete control
Readout name: Plant response rating, Rice
Answers are plain numbers.

Would you please look over these solved cases?
{"Molecule": "CCn1nc(C(C)(C)C)cc1C(=O)Nc1cccc(C(C)=O)c1 [Compound 122]", "Readout name": "Plant response rating, Rice", "Recorded value": 20}
{"Molecule": "C=CCn1nc(C(C)(C)C)cc1C(=O)Nc1cccc(C(=O)NCC)c1 [Compound 56]", "Readout name": "Plant response rating, Rice", "Recorded value": 40}

We now examine a further molecule.
Req: I have this molecule here, CCOC(=O)c1ccnc(NC(=O)c2cc(C(C)(C)C)nn2CC)c1 [Compound 157] , and I need its recorded Plant response rating, Rice.
Resp: 0

###

Please respond with reported Plant response rating (0 to 100 scale), Morningglory for every item in the list.
# System: morningglory
# Test protocol: Test B pre-/postemergence herbicide test
# Assay type: in vivo, Ipomoea coccinea
# Condition info: 125 g ai/ha; 0 is no effect, 100 is complete control; preemergence
Answers are plain numbers.

Answered cases to consult:
{"Compound structure": "CCNC(=O)c1ccc(F)c(NC(=O)c2nn(C(C)C)nc2C)c1", "Recorded value": 0}
{"Compound structure": "CN(C)C(=O)c1cccc(NC(=O)c2nn(C(C)(C)C)nc2Br)c1", "Recorded value": 90}
{"Compound structure": "C#CCNC(=O)c1ccc(F)c(NC(=O)c2nn(C(C)(C)C)nc2CC)c1", "Recorded value": 0}
{"Compound structure": "CCNC(=S)c1cccc(NC(=O)c2nn(C(C)(C)C)nc2C)c1", "Recorded value": 50}
{"Compound structure": "C=CCNC(=O)c1cccc(NC(=O)c2cc(C(C)(C)C)nn2C)n1", "Recorded value": 0}

// each molecule listed below needs its Plant response rating (0 to 100 scale), Morningglory
1. CCN(C(C)=O)C(=O)c1ccc(F)c(NC(=O)c2cc(C(C)(C)C)nn2CC)c1
2. C=CCNC(=O)c1ccc(F)c(NC(=O)c2cc(C(C)(C)C)nn2CC)c1
3. CCc1nn(C(C)C)nc1C(=O)Nc1cccc(C(=S)N(C)C)c1
4. CCOC(=O)c1cccc(NC(=O)c2nn(C(C)C)nc2C)c1
5. C=CCN(CC=C)C(=O)c1cccc(NC(=O)c2nn(C(C)(C)C)nc2CC)c1

Resp:
1: 0; 2: 20; 3: 60; 4: 0; 5: 0
